Provenance of the data: patent US10829473B2

# ASSAYED SYSTEM: F508delCFTR (Homo sapiens, UniProt P13569, DEL508-508)
# Construct: expressed in transfected cells; host or cells: CFBE41o- human lung derived epithelial cells (CFBE41o-F508delCFTR-HRP), doxycycline-inducible
# Sequence (P13569 with tags, fused parts or gaps DEL508-508): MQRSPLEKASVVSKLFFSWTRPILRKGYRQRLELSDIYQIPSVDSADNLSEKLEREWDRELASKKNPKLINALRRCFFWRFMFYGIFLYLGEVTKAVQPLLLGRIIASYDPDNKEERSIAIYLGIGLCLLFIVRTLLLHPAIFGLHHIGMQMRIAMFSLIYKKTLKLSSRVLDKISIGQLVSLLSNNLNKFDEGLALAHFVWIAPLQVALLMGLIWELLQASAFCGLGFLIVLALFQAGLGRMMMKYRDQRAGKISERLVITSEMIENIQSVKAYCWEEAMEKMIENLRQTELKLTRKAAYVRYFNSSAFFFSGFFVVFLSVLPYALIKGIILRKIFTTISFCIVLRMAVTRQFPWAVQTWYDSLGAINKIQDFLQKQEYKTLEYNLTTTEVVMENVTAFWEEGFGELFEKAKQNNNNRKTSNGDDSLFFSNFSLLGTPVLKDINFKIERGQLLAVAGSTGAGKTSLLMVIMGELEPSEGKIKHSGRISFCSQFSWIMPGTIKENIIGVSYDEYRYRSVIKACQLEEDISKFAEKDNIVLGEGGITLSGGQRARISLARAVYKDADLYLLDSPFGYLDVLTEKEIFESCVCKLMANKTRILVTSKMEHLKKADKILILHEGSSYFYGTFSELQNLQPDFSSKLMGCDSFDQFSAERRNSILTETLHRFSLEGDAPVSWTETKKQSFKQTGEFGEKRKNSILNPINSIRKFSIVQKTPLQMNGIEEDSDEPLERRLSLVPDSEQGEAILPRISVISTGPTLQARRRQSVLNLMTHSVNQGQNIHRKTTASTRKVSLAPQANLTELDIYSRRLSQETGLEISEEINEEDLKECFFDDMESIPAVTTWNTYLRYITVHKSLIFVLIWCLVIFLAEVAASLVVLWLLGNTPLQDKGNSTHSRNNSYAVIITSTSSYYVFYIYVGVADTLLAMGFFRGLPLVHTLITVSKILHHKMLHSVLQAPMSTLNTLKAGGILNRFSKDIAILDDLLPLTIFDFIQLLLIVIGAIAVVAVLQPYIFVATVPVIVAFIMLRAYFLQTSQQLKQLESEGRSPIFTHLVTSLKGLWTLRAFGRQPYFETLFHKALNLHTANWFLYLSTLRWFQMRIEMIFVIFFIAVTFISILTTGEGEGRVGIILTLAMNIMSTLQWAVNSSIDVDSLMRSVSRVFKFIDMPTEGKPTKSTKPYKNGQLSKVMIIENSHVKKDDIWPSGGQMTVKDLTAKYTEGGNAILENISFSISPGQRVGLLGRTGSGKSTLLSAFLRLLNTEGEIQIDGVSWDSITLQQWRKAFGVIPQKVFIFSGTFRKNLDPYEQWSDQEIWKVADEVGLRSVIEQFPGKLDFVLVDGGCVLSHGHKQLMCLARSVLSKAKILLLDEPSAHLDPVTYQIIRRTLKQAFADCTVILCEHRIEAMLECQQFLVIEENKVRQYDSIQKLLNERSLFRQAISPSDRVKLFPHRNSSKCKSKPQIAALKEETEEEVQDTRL
# TEST METHOD NOTES: Cell Surface Expression-Horse Radish Peroxidase (CSE-HRP) Assay
# Type: cell-based
# MEASUREMENT CONTEXT: test compound alone, without co-corrector; read-out: EC50 (without co-corrector)
pEC50: −log10 of the molar value.
QUANTITY: pEC50

Prompt: What measured pEC50 is associated with "COc1ncc(C2CCC2)cc1C1(C(=O)NS(=O)(=O)c2cccc3c2ccn3C)CC1" on F508delCFTR (Homo sapiens, UniProt P13569, DEL508-508)?
Response: > 5.52

Prompt: Request - read-out pEC50 | tested on F508delCFTR (Homo sapiens, UniProt P13569, DEL508-508) | compound "CCc1ccc(O[C@H]2CCOC2)c(C2(C(=O)NS(=O)(=O)c3cccc4ncccc34)CC2)c1"
Response: > 5.52

Prompt: Which pEC50 is reported with F508delCFTR (Homo sapiens, UniProt P13569, DEL508-508) for this entry: "COc1ccc(C2CCC2)cc1C1(C(=O)NS(=O)(=O)c2cccc3c2CCCN3)CC1" ?
Response: 5.00 to 5.52

Prompt: Lab request: please report pEC50 under test system F508delCFTR (Homo sapiens, UniProt P13569, DEL508-508) for "COc1ncc(C2CCC2)cc1C1(C(=O)NS(=O)(=O)c2cccc3ncn(C)c23)CC1"
Response: 5.00 to 5.52

Prompt: Notebook entry, F508delCFTR (Homo sapiens, UniProt P13569, DEL508-508) assay: pEC50 of "COc1ccc(C(C)(C)OC)cc1C1(C(=O)NS(=O)(=O)c2cccc3ncccc23)CC1" = ?
Response: > 5.52

Prompt: Checklist item: pEC50 tested on F508delCFTR (Homo sapiens, UniProt P13569, DEL508-508), entry "O=C(NS(=O)(=O)c1ccc2ccccc2c1)C1(c2ccc(Cl)cc2Cl)CC1" , value?
Response: < 5.00

Prompt: What value of pEC50 on F508delCFTR (Homo sapiens, UniProt P13569, DEL508-508) does "COc1ccc(C)cc1C1(C(=O)NS(=O)(=O)c2cccc3ncccc23)CC1" have?
Response: > 5.52
